Examples of compounds with documented viability follow.
Experiment: growth inhibitors of H69AR lung tumor, primary screen, human, duplicate replicates (AID 580);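 note: 100% = mean luminescence of untreated wells and 0% = no signal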
Conditions: H69AR lung tumor cells viability, ATP luminescence, 72 h; at 10 µM; hits give low values
Supply the numeric figure in %, leaving out any unit text.

Recorded viability, per entry:
compound	viability / %
CCN(CC)Cc1nc2c(c(=O)[nH]1)C1(CCCCC1)Cc1ccccc1-2	72.8
CCN1CCN(C(=O)c2ccc3c(=O)n(C4CCCC4)c(=S)[nH]c3c2)CC1	84.7
O=C(NCc1ccc2c(c1)OCO2)c1cc2n(n1)C(C(F)(F)F)CC(c1ccc3c(c1)OCO3)N2 (stereo unspecified)	84.2
CCOC(=O)c1c(NC(=O)CSc2nnc(-c3ccc(OC)cc3)o2)sc2c1CCC2	82.1
CC1(C)Cc2noc(N)c2C(C)(C)N1O	95.6

Ask: Specify reported viability for the compound shown: `COc1ccc(S(=O)(=O)N2CCOCC2)cc1C(=O)Nc1cc(C)on1`
Result: 93.9

Ask: Specify reported viability for the compound shown: `c1ccc(-c2nnc(OCCN3CCOCC3)c3ccccc23)cc1`
Result: 84.2

Ask: Specify reported viability for the compound shown: `COc1ccc(C(=O)N2CCN(c3nc4cc(C)ccc4cc3C#N)CC2)c(OC)c1`
Result: 85.4

Ask: Specify reported viability for the compound shown: `COc1ccc(CCn2c(-c3ccco3)nc3nc4ccccc4nc32)cc1`
Result: 25.6

Ask: Specify reported viability for the compound shown: `CCOc1ccc(-c2nc(C#N)c(N3CCCCCC3)o2)cc1`
Result: 94.7

Ask: Specify reported viability for the compound shown: `CN(C)c1ccc(NC(=O)c2cc3c(=O)n4ccccc4nc3n2C)cc1`
Result: 80.3

Ask: Specify reported viability for the compound shown: O=C(c1cc2n(n1)C(C(F)(F)F)CC(c1ccc(Cl)cc1)N2)N1CCCC1 (stereo unspecified)
Result: 90.9

Ask: Specify reported viability for the compound shown: Nc1c(S(=O)(=O)c2cccs2)c2nc3ccccc3nc2n1CC1CCCO1 (stereo unspecified)
Result: 85.9
